Target: Bombyx mori EcR (VP16-BmEcR, CVBE) (Bombyx mori)
Construct: expressed in transfected cells
Sequence (P49881 86-606): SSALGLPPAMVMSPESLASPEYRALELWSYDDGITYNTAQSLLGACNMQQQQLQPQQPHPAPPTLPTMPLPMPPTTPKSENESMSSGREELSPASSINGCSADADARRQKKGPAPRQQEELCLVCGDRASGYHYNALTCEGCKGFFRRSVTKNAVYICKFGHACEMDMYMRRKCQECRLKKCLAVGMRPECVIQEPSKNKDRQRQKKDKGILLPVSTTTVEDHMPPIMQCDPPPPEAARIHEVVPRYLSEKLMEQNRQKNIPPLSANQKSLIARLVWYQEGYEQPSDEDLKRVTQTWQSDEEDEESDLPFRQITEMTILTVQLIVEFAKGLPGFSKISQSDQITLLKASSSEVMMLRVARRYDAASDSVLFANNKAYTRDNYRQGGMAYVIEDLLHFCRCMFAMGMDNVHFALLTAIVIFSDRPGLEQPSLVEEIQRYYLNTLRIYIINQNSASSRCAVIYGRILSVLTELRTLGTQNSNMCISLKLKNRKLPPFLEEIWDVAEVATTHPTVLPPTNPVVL
Experiment: Z3 assay (HEK-293 clone Z3 with CVBE and 6x EcRE LacZ, β-galactosidase reporter)
Type: cell-based
Conditions: 48 h, average of two wells
Strictly below 6 fold in Fold Induction Average, Z3V1 Assay 33 μM: YES. Otherwise: NO.

These recorded examples may help you get a feel for the data.
                                   compound  class_label
0  CC1CC(Nc2ccccc2)c2ccccc2N1C(=O)c1ccccc1 (centres unmarked)          YES
1  C[C@H]1C[C@H](Nc2ccccc2)c2ccccc2N1C(=O)c1ccccc1C(F)(F)F (relative stereo)          YES
2  CC1CC(Nc2ccccc2)c2ccccc2N1C(=O)COc1ccc(F)cc1 (centres unmarked)          YES
3  C[C@H]1C[C@H](Nc2ccc(F)cc2)c2cc(F)ccc2N1C(=O)c1ccccc1 (relative stereo)           NO
4  COc1ccccc1C(=O)N1c2ccc(F)cc2C(Nc2ccc(F)cc2)CC1C (centres unmarked)          YES

Does COc1cccc(C(=O)N2c3ccccc3C(Nc3ccccc3)CC2C)c1C (centres unmarked) have Fold Induction Average, Z3V1 Assay 33 μM strictly under 6 fold?
NO

I'd appreciate it if you could check whether COc1cccc(C(=O)N2c3ccc(C)cc3C(Nc3ccc(C)cc3)CC2C)c1C (centres unmarked) has Fold Induction Average, Z3V1 Assay 33 μM smaller than 6 fold.
NO
